Every entry's value here was drawn from PubChem BioAssay (Tox21).

assay.remarks: qHTS assay to identify small molecule that activate the aryl hydrocarbon receptor (AhR) signaling pathway - cell viability counter screen (AID 743086);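 further: HepG2 liver cells carrying the AhR DRE luciferase reporter; on the % scale 0 is the no-effect control and ±100 the full control effect; nearly all actives have a fitted effect of over 45% in size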
condition.context: HepG2-AhR-luc viability, CellTiter-Fluor, 24 h; series mostly up to 70.3 µM
Records with an inconclusive call do not appear. Activity calls are given as the source filed them. The call rests on the fitted dose curve; in most records, active means well fitted cell-killing curve with a large enough effect in the repeat runs; inconclusive means weak or mixed curves, or effect the other way; inactive means flat fitted curve, though single readings scatter.
readout.name: outcome

molecule: CCC(C)(C)OC(=O)N[C@@H](Cc1c[nH]c2ccccc12)C(=O)N[C@@H](CCSC)C(=O)N[C@@H](CC(=O)O)C(=O)N[C@@H](Cc1ccccc1)C(N)=O
value.observed: inactive

molecule: CC(O)[C@@H]1NC(=O)[C@H](Cc2ccccc2)NC(=O)[C@H](C(C)O)NC(=O)[C@H](CCCCN)NC(=O)[C@H](Cc2c[nH]c3ccccc23)NC(=O)[C@H](Cc2ccccc2)NC(=O)[C@H](Cc2ccccc2)NC(=O)[C@H](CC(N)=O)NC(=O)[C@H](CCCCN)NC(=O)[C@@H](NC(=O)CNC(=O)[C@H](C)N)CSSC[C@@H](C(=O)O)NC(=O)[C@H](CO)NC1=O (some centres not stated)
value.observed: inactive

====

study.system: Nuclear receptor subfamily 1 group I member 2 (Rattus norvegicus) (UniProt Q9R1A7)
Sequence (Q9R1A7 whole entry, looked up): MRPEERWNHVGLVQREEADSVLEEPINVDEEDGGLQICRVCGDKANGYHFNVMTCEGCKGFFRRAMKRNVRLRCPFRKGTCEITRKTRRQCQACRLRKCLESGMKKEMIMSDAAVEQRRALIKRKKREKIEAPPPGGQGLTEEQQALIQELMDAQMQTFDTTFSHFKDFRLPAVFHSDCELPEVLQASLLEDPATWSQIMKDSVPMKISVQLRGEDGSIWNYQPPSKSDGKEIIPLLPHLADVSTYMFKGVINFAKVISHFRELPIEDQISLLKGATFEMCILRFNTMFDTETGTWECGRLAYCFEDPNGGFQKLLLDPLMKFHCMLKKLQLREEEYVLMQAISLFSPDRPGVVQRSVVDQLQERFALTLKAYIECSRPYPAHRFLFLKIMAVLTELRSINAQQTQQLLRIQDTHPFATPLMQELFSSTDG
assay.remarks: Rat pregnane X receptor (rPXR) activation by small molecules, qHTS assay (AID 1346983); further: on the % scale 0 is the no-effect control and ±100 the full control effect; nearly all actives have a fitted effect of over 20% in size
condition.context: rPXR luciferase reporter cells, One-Glo luminescence, 24 h; active compounds read high
Results filed as inconclusive are left out.
Examples of compounds with documented max activation follow.
readout.name: max activation (%)

compound: C=C(NC(=O)C(=C)NC(=O)c1csc(C2=N[C@@H]3c4csc(n4)[C@H]4NC(=O)c5csc(n5)[C@H]([C@](C)(O)[C@@H](C)O)NC(=O)[C@H]5CSC(=N5)C(=CC)NC(=O)C([C@@H](C)O)NC(=O)c5csc(n5)[C@]3(CC2)NC(=O)[C@H](C)NC(=O)C(=C)NC(=O)[C@H](C)NC(=O)C([C@@H](C)CC)NC2C=Cc3c([C@H](C)O)cc(nc3C2O)C(=O)O[C@@H]4C)n1)C(N)=O (stereo not given in full)
study.system: Nuclear receptor subfamily 1 group I member 2 (Rattus norvegicus) (UniProt Q9R1A7)
readout.name: max activation
display.unit: %
value.observed: -3.21

compound: OCCN1CCN(CC/C=C2/c3ccccc3Sc3ccc(Cl)cc32)CC1
study.system: Nuclear receptor subfamily 1 group I member 2 (Rattus norvegicus) (UniProt Q9R1A7)
readout.name: max activation
display.unit: %
value.observed: -1.76

compound: CCN(CC)CCOC(=O)c1cccnc1
study.system: Nuclear receptor subfamily 1 group I member 2 (Rattus norvegicus) (UniProt Q9R1A7)
readout.name: max activation
display.unit: %
value.observed: -7.53

compound: COc1cc(-c2ccc(-[n+]3nc(-c4ccccc4)nn3-c3ccc([N+](=O)[O-])cc3)c(OC)c2)ccc1-[n+]1nc(-c2ccccc2)nn1-c1ccc([N+](=O)[O-])cc1
study.system: Nuclear receptor subfamily 1 group I member 2 (Rattus norvegicus) (UniProt Q9R1A7)
readout.name: max activation
display.unit: %
value.observed: -16

compound: CO[C@@H]1[C@@H](O[C@@H]2O[C@H](C)[C@@H](O[C@H]3C[C@@](C)(O)[C@@H](OC(=O)CC(C)C)[C@H](C)O3)[C@H](N(C)C)[C@H]2O)[C@@H](CC=O)C[C@@H](C)C(=O)/C=C/C2OC2C[C@@H](C)OC(=O)C[C@H]1OC(C)=O (stereo not given in full)
study.system: Nuclear receptor subfamily 1 group I member 2 (Rattus norvegicus) (UniProt Q9R1A7)
readout.name: max activation
display.unit: %
value.observed: -11.7

compound: CO[C@H]1C=CO[C@@]2(C)Oc3c(C)c(O)c4c(O)c(c5c(nc6cc(C)ccn65)c4c3C2=O)NC(=O)/C(C)=C\C=C[C@H](C)[C@H](O)[C@@H](C)[C@@H](O)[C@@H](C)[C@H](OC(C)=O)[C@@H]1C
study.system: Nuclear receptor subfamily 1 group I member 2 (Rattus norvegicus) (UniProt Q9R1A7)
readout.name: max activation
display.unit: %
value.observed: -6.53

compound: CCCCCCCCCCCCCCCCCC[N+](C)(C)CCC[Si](OC)(OC)OC
study.system: Nuclear receptor subfamily 1 group I member 2 (Rattus norvegicus) (UniProt Q9R1A7)
readout.name: max activation
display.unit: %
value.observed: 6.33

compound: COC(=O)CC[C@H](N)C(=O)O
study.system: Nuclear receptor subfamily 1 group I member 2 (Rattus norvegicus) (UniProt Q9R1A7)
readout.name: max activation
display.unit: %
value.observed: -5.81

compound: CCCC1C(=O)N2C(N(C)C)=Nc3ccc(C)cc3N2C1=O (stereo not given)
study.system: Nuclear receptor subfamily 1 group I member 2 (Rattus norvegicus) (UniProt Q9R1A7)
readout.name: max activation
display.unit: %
value.observed: 5.29

compound: O=C(O)c1c(Cl)c(Cl)c(Cl)c(Cl)c1-c1c2cc(I)c(=O)c(I)c-2oc2c(I)c(O)c(I)cc12
study.system: Nuclear receptor subfamily 1 group I member 2 (Rattus norvegicus) (UniProt Q9R1A7)
readout.name: max activation
display.unit: %
value.observed: -7.42

compound: CC(C)Cc1ccc([C@@H](C)C(=O)NS(C)(=O)=O)cc1
study.system: Nuclear receptor subfamily 1 group I member 2 (Rattus norvegicus) (UniProt Q9R1A7)
readout.name: max activation
display.unit: %
value.observed: -2.09

compound: CN=C1C=CC(=C(c2ccc(N(C)C)cc2)c2ccc(N(C)C)cc2)C=C1
study.system: Nuclear receptor subfamily 1 group I member 2 (Rattus norvegicus) (UniProt Q9R1A7)
readout.name: max activation
display.unit: %
value.observed: -26

compound: O=C(NNCNNC(=O)c1ccncc1)c1ccncc1
study.system: Nuclear receptor subfamily 1 group I member 2 (Rattus norvegicus) (UniProt Q9R1A7)
readout.name: max activation
display.unit: %
value.observed: -3.41

compound: CCCCCCCCCCCC(=O)N(CCO)CCO
study.system: Nuclear receptor subfamily 1 group I member 2 (Rattus norvegicus) (UniProt Q9R1A7)
readout.name: max activation
display.unit: %
value.observed: -2.62

compound: Nc1ccc(S(=O)(=O)Nc2ncccn2)cc1
study.system: Nuclear receptor subfamily 1 group I member 2 (Rattus norvegicus) (UniProt Q9R1A7)
readout.name: max activation
display.unit: %
value.observed: -1.29

====

assay.remarks: qHTS assay for identifying genotoxic compounds that show differential cytotoxicity against isogenic chicken DT40 cell lines with known DNA damage response pathways - Rev3 mutant cell line (AID 743014); further: nearly all actives have a fitted effect of over 55% in size
condition.context: chicken DT40 Rev3-/- viability, CellTiter-Glo, 40 h; series mostly up to 68.4 µM
From the text: National Center for Advancing Translational Sciences [NCATS] NIH Chemical Genomics Center [NCGC] U.S. Environmental Protection Agency [EPA] National Institutes of Environmental Health Sciences [NIEHS] National Toxicology Program [NTP] U.S. Food and Drug Administration [FDA] DNA repair pathways play a critical role in cellular homeostasis by repairing DNA damage induced by endogenous processes and xenobiotics. […]
Results filed as inconclusive are left out. Active and inactive are the calls of the source. Calls come from the whole dose curve; as a rule, active = well fitted cell-killing curve with a large enough effect in the repeat runs; inconclusive = weak or mixed curves, or effect the other way; inactive = no such curve, though single readings can be large or run the other way.
Classes used: T (active), F (inactive)

molecule: CCCC(=O)O[C@]1(C(=O)COC(C)=O)CC[C@H]2[C@@H]3C[C@H](F)C4=CC(=O)C=C[C@]4(C)[C@@]3(F)[C@@H](O)C[C@@]21C
category: T

molecule: C=C1CC[C@H](O)CC1=C/C=C1\CCC[C@]2(C)[C@@H]([C@H](C)CCCC(C)(C)O)CC[C@@H]12
category: T

molecule: CC1=C[C@H](O)CC(C)(C)[C@H]1/C=C/C(C)=C/C=C/C(C)=C/C=C/C=C(C)/C=C/C=C(C)/C=C/C1=C(C)C[C@@H](O)CC1(C)C
category: T

molecule: CC(CCc1ccc(O)cc1)NCC(O)c1ccc(O)cc1 (centres undefined)
category: F

====

study.system: Glucocorticoid receptor (Homo sapiens)
assay.remarks: qHTS assay to identify small molecule agonists of the glucocorticoid receptor (GR) signaling pathway (AID 720691); on activation: on the % scale 0 is the no-effect control and ±100 the full control effect
condition.context: GR-bla HeLa, beta-lactamase reporter ratio, 18 h
Excerpt: U.S. Tox21 Program National Center for Advancing Translational Sciences [NCATS] NIH Chemical Genomics Center [NCGC] U.S. Environmental Protection Agency [EPA] National Institutes of Environmental Health Sciences [NIEHS] National Toxicology Program [NTP] U.S. Food and Drug Administration [FDA] […] The activation of the reporter gene under culture conditions can be detected by fluorescence intensity. […]
The source made the active and inactive calls. The call rests on the fitted dose curve; in most records, active means well fitted activation curve with a large enough effect in the signal ratio in the repeat runs (not every such curve was filed as active); inconclusive means weak or mixed curves, or effect the other way; inactive means no such curve, though single readings can be large or run the other way; the % refers to the signal ratio.
Outcomes: active, inactive

molecule: CCCCC(=O)N(Cc1ccc(-c2ccccc2-c2nn[nH]n2)cc1)[C@@H](C(=O)O)C(C)C
study.system: Glucocorticoid receptor (Homo sapiens)
category: inactive
--
molecule: O=S(=O)(O)Oc1ccc(C(c2ccc(OS(=O)(=O)O)cc2)c2ccccn2)cc1
study.system: Glucocorticoid receptor (Homo sapiens)
category: inactive
--
molecule: C#C[C@]1(O)CC[C@H]2[C@@H]3CCC4=C(CCC(=O)C4)[C@H]3CC[C@@]21C
study.system: Glucocorticoid receptor (Homo sapiens)
category: inactive
--
molecule: O=C1NC(=O)[C@H]2[C@@H]1[C@@H]1C=C[C@H]2C1
study.system: Glucocorticoid receptor (Homo sapiens)
category: inactive
--
molecule: CC1(C)S[C@@H]2[C@H](NC(=O)C3(N)CCCCC3)C(=O)N2[C@H]1C(=O)O
study.system: Glucocorticoid receptor (Homo sapiens)
category: inactive
--
molecule: O=C(c1cc2ccccc2o1)N1CCN(Cc2ccccc2)CC1
study.system: Glucocorticoid receptor (Homo sapiens)
category: inactive
--
molecule: O=C(Cc1cccs1)N[C@@H]1C(=O)N2C(C(=O)[O-])=C(C[n+]3ccccc3)CS[C@H]12
study.system: Glucocorticoid receptor (Homo sapiens)
category: inactive
--
molecule: CCOc1cc(-c2nccc3cc(OC)c(OC)cc23)cc(OCC)c1OCC
study.system: Glucocorticoid receptor (Homo sapiens)
category: inactive
--
molecule: CC(CN1c2ccccc2Sc2ccc(S(=O)(=O)N(C)C)cc21)N(C)C (centres undefined)
study.system: Glucocorticoid receptor (Homo sapiens)
category: inactive
--
molecule: O=C(NNCS(=O)(=O)O)c1ccncc1
study.system: Glucocorticoid receptor (Homo sapiens)
category: inactive
--
molecule: CC1(C)S[C@@H]2[C@H](NC(=O)C(C(=O)O)c3ccsc3)C(=O)N2[C@H]1C(=O)O (some centres undefined)
study.system: Glucocorticoid receptor (Homo sapiens)
category: inactive
--
molecule: O=c1oc2cc(O)ccc2s1
study.system: Glucocorticoid receptor (Homo sapiens)
category: inactive
--
molecule: COc1ccc2c(=O)c(C)c(-c3ccccc3)oc2c1CN(C)C
study.system: Glucocorticoid receptor (Homo sapiens)
category: inactive
--
molecule: CCCCCCCCCCCCCC[n+]1ccc(C)cc1
study.system: Glucocorticoid receptor (Homo sapiens)
category: inactive
--
molecule: [O]=[Bi][O]C(=O)[O][Bi]=[O]
study.system: Glucocorticoid receptor (Homo sapiens)
category: inactive
--
molecule: C=CCSSSCC=C
study.system: Glucocorticoid receptor (Homo sapiens)
category: inactive
--
molecule: O=[N+]([O-])c1c(Cl)cccc1-c1c[nH]cc1Cl
study.system: Glucocorticoid receptor (Homo sapiens)
category: inactive
--
molecule: C=C1CC2C3CCC4=CC(=O)C=C[C@]4(C)[C@@]3(F)[C@@H](O)C[C@]2(C)[C@@]1(O)C(=O)COC(C)=O (some centres undefined)
study.system: Glucocorticoid receptor (Homo sapiens)
category: active
--
molecule: C/C1=C2N=C(/C=C3N=C(/C(C)=C4\[N-]C(C(CC(N)=O)C4(C)CCC(=O)NCC(C)OP(=O)([O-])OC4C(CO)OC(n5cnc6cc(C)c(C)cc65)C4O)C4(C)N=C1C(CCC(N)=O)C4(C)CC(N)=O)C(CCC(N)=O)C\3(C)C)C(CCC(N)=O)C/2(C)CC(N)=O.[CH3-].[Co+3] (centres undefined)
study.system: Glucocorticoid receptor (Homo sapiens)
category: inactive
--
molecule: CC(C)CN(C[C@@H](O)[C@H](Cc1ccccc1)NC(=O)O[C@H]1CO[C@H]2OCC[C@H]21)S(=O)(=O)c1ccc(N)cc1
study.system: Glucocorticoid receptor (Homo sapiens)
category: inactive
--
molecule: CCC(=O)NS(=O)(=O)c1ccc(-c2c(-c3ccccc3)noc2C)cc1
study.system: Glucocorticoid receptor (Homo sapiens)
category: inactive
--
molecule: COC(=O)[C@@H](N)CS
study.system: Glucocorticoid receptor (Homo sapiens)
category: inactive
--
molecule: CC(C)(C)C1(O)CCN2CC3c4ccccc4CCc4cccc(c43)C2C1 (centres undefined)
study.system: Glucocorticoid receptor (Homo sapiens)
category: inactive
--
molecule: c1ccc2cc(C3=NCCN3)ccc2c1
study.system: Glucocorticoid receptor (Homo sapiens)
category: inactive
--
molecule: CCCc1ccc(C(=O)O)cc1
study.system: Glucocorticoid receptor (Homo sapiens)
category: inactive
--
molecule: O=C1N=C2SCCN2C(=O)C1Cc1ccc(Cl)cc1 (centres undefined)
study.system: Glucocorticoid receptor (Homo sapiens)
category: inactive
--
molecule: CCCC(CCC)C(N)=O
study.system: Glucocorticoid receptor (Homo sapiens)
category: inactive
--
molecule: COc1cc(/C=C/C(=O)N2CCN(CC(=O)N3CCCC3)CC2)cc(OC)c1OC
study.system: Glucocorticoid receptor (Homo sapiens)
category: inactive
--
molecule: N[C@H](CC(=O)O)C(=O)O
study.system: Glucocorticoid receptor (Homo sapiens)
category: inactive
--
molecule: CC1=C(/C=C/C(C)=C/C=C/C(C)=C/C=C/C=C(C)/C=C/C=C(C)/C=C/C2=C(C)C(=O)CCC2(C)C)C(C)(C)CCC1=O
study.system: Glucocorticoid receptor (Homo sapiens)
category: inactive
--
molecule: Cc1onc(-c2ccccc2)c1C(=O)N[C@@H]1C(=O)N2[C@@H]1SC(C)(C)[C@@H]2C(=O)O
study.system: Glucocorticoid receptor (Homo sapiens)
category: inactive
--
molecule: C[C@@H]1C[C@H]2[C@@H]3CCC4=CC(=O)C=C[C@]4(C)[C@@]3(F)[C@@H](O)C[C@]2(C)[C@@]1(O)C(=O)COC(=O)c1cccc(S(=O)(=O)O)c1
study.system: Glucocorticoid receptor (Homo sapiens)
category: active
--
molecule: O=C1C(=O)c2ncccc2-c2cccnc21
study.system: Glucocorticoid receptor (Homo sapiens)
category: inactive
--
molecule: CC(C)[C@@H](N)C(=O)O
study.system: Glucocorticoid receptor (Homo sapiens)
category: inactive
--
molecule: CCOC(=O)O[C@]1(C(=O)COC(=O)CC)CC[C@H]2[C@@H]3CCC4=CC(=O)C=C[C@]4(C)[C@H]3[C@@H](O)C[C@@]21C
study.system: Glucocorticoid receptor (Homo sapiens)
category: active
--
molecule: CC(C)c1nc(N(C)S(C)(=O)=O)nc(-c2ccc(F)cc2)c1/C=C/C(O)CC(O)CC(=O)O (centres undefined)
study.system: Glucocorticoid receptor (Homo sapiens)
category: inactive
--
molecule: CN1CC(O)c2cc(N=NC(N)=O)c(O)cc21 (centres undefined)
study.system: Glucocorticoid receptor (Homo sapiens)
category: inactive
--
molecule: CCOC(=O)Cc1cccc(-c2cc(CCCCCCc3ccc(O[C@H]4O[C@H](COC(C)=O)[C@@H](OC(C)=O)[C@H](OC(C)=O)[C@@H]4OC(C)=O)c(-c4cccc(CC(=O)OCC)c4)c3)ccc2O[C@H]2O[C@H](COC(C)=O)[C@@H](OC(C)=O)[C@H](OC(C)=O)[C@@H]2OC(C)=O)c1
study.system: Glucocorticoid receptor (Homo sapiens)
category: inactive
--
molecule: CCN(CC)CCOC(=O)c1cccnc1
study.system: Glucocorticoid receptor (Homo sapiens)
category: inactive
